FYI, the data here is from patent US10941182.

For each entry below, report its EC50 Rat APJ Receptor value.
- Tgt: T1, rat APJ receptor (rat, UniProt Q9JHG3 1-377)
- T1 sequence (looked up): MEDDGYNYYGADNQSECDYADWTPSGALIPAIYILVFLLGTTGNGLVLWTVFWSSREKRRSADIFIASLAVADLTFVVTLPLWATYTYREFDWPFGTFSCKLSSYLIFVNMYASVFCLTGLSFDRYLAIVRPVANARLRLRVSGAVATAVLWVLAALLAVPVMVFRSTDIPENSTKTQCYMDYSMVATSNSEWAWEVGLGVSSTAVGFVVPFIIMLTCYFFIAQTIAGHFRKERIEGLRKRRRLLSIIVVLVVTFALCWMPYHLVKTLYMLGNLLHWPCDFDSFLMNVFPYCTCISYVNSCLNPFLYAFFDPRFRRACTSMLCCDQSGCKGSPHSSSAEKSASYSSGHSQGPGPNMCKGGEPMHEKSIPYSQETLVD
- Run description: cell-based or functional assay
Starred links: 1 amine or outer side, 2 acyl side, 3 side chain; linkers in the order of their positions; H or OH if unused. Non-standard residues stand in square brackets, D forms with d. *: point of attachment. AC4Abu = α-carboxy-4-aminobutyric acid, O=C(C(CCN[*:1])C(=O)[*:3])[*:2]; dBip = N[C@H](Cc1ccc(-c2ccccc2)cc1)C(=O)O; Phe(4-I) = N[C@@H](Cc1ccc(I)cc1)C(=O)O; NMeR = CN[C@@H](CCCNC(=N)N)C(=O)O; Palmitoyl = CCCCCCCCCCCCCCCC(=O)*; hArg = N=C(N)NCCCC[C@H](N)C(=O)O; Cha = N[C@@H](CC1CCCCC1)C(=O)O; NMeL = CN[C@@H](CC(C)C)C(=O)O; Aic = NC1(C(=O)O)Cc2ccccc2C1; Pip = O=C(O)[C@@H]1CCCCN1; Nle = CCCC[C@H](N)C(=O)O; AEEA = NCCOCCOCC(=O)O

- Binder: "QRPRLSHKGPXPF ({H2}[MerPr](10K mPEG acetamide)Q[hArg]P[NMehArg]LSHKGP[Nle]P[4-Cl-F]{COOH}) [SEQ ID NO: 113]"
  EC50 Rat APJ Receptor: "49.3 nM"

Batch lookup, EC50 Rat APJ Receptor per entry.
1. Ac-[hArg][dR]Q[hArg]P[dR][NMeL]SHKGE[Phe(4-I)]P[dBip]-OH (SMILES CC(=O)N[C@@H](CCCCNC(=N)N)C(=O)N[C@H](CCCNC(=N)N)C(=O)N[C@@H](CCC(N)=O)C(=O)N[C@@H](CCCCNC(=N)N)C(=O)N1CCC[C@H]1C(=O)N[C@H](CCCNC(=N)N)C(=O)N(C)[C@@H](CC(C)C)C(=O)N[C@@H](CO)C(=O)N[C@@H](Cc1c[nH]cn1)C(=O)N[C@@H](CCCCN)C(=O)NCC(=O)N[C@@H](CCC(=O)O)C(=O)N[C@@H](Cc1ccc(I)cc1)C(=O)N1CCC[C@H]1C(=O)N[C@H](Cc1ccc(-c2ccccc2)cc1)C(=O)O) [SEQ ID NO: 85]
2. QRPRLSHKGPXPF ({H2}[MerPr](10K mPEG acetamide)QRP[hArg][aMeLeu]SHKGP[Nle]P[4-Cl-F]{COOH}) [SEQ ID NO: 117]

1: > 4170 nM; 2: 117 nM

Consider the binder Palmitoyl-[AC4Abu][AEEA][AEEA][dQ]RP[NMeR][Cha]SHKG[Pip][Nle][Aic]-OH (SMILES CCCCCCCCCCCCCCCC(=O)NCCC(C(=O)O)C(=O)NCCOCCOCC(=O)NCCOCCOCC(=O)N[C@H](CCC(N)=O)C(=O)N[C@@H](CCCNC(=N)N)C(=O)N1CCC[C@H]1C(=O)N(C)[C@@H](CCCNC(=N)N)C(=O)N[C@@H](CC1CCCCC1)C(=O)N[C@@H](CO)C(=O)N[C@@H](Cc1c[nH]cn1)C(=O)N[C@@H](CCCCN)C(=O)NCC(=O)N1CCCC[C@H]1C(=O)N[C@@H](CCCC)C(=O)NC1(C(=O)O)Cc2ccccc2C1) [SEQ ID NO: 597] and give its recorded EC50 Rat APJ Receptor.
3.37 nM
